Reference for the values: patent US20030068675

# study-system: ZFP SBS#751 (synthetic)
# Sequence (chain, as listed by the source): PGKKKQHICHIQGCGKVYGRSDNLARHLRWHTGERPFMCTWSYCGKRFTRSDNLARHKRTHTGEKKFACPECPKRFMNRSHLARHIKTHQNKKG
# assay-info: EMSA
# assay-conditions: tags: MBP fusion
measured-attribute: pKd
Keep it numeric: pKd is minus log10 of the concentration in mol/L.

Recorded pKd (binder GGTGAGGAGT (dsDNA) DNA 1: GGTGAGGAGT DNA 2: ACTCCTCACC ): 8.15
